Listed here: items and their measured pIC50.
target: UniProtKB P31749; assay: PKB kinase assay (P33-labeled ATP, peptide substrate, filter plate); details: PKBα enzyme (full length or kinase domain with pleckstrin domain deleted)
Sequence (P31749 118-480 limits assumed): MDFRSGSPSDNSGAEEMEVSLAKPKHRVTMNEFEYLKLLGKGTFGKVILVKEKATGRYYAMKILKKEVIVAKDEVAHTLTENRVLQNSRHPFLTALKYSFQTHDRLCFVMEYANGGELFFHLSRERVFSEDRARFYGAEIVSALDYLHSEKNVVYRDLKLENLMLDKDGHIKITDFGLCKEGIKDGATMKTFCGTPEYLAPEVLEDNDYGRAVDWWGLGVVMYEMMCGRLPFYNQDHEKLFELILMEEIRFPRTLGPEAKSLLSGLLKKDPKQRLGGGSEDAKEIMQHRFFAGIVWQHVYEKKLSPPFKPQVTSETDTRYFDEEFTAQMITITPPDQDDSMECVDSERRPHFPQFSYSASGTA
pIC50: −log10 of the molar value.
endpoint: pIC50

compound	endpoint	endpoint-value
Cn1c(=O)[nH]c2ccc(-c3cnc(NC[C@@H](N)Cc4ccc(Cl)c(F)c4)s3)cc21 [Example 87]	pIC50	> 7.30
COc1ccc(C[C@H](N)CNc2ncc(-c3nc4ccncc4s3)s2)cc1 [Example 98]	pIC50	6.00 to 7.30
COCc1nc(NC[C@@H](N)Cc2ccc(C(F)(F)F)cc2)sc1-c1ccc2[nH]ncc2c1 [Example 14]	pIC50	> 7.30
C[C@@H](c1ccc(C(F)(F)F)cc1)[C@H](N)CNc1ncc(-c2cc(F)c3c(c2)CC(=O)N3)s1 [Example 222]	pIC50	6.00 to 7.30
Cn1c(=O)[nH]c2ccc(-c3sc(NC[C@@H](N)Cc4ccc(F)cc4)nc3-c3ccccc3F)cc21 [Example 250]	pIC50	5.00 to 6.00
N[C@H](CNc1ncc(-c2nc3ccncc3s2)s1)Cc1ccc(Cl)cc1 [Example 99]	pIC50	> 7.30
N[C@H](CNc1nc(C2CCCO2)c(-c2ccc3cnccc3c2)s1)Cc1ccc(C(F)(F)F)cc1 (stereo partly shown) [Example 198]	pIC50	> 7.30
N[C@H](CNc1ncc(-c2ccc3c(c2)CC(=O)N3)s1)Cc1ccc(C(F)(F)F)c(O)c1 [Example 209]	pIC50	6.00 to 7.30
Cc1n[nH]c2ccc(-c3cnc(NC[C@@H](N)Cc4ccc(Cl)cc4)s3)cc12 [Example 3]	pIC50	6.00 to 7.30
N[C@H](CNc1ncc(-c2ccc3c(c2)CC(=O)N3)s1)Cc1ccc(C(F)(F)F)c(F)c1 [Example 185]	pIC50	> 7.30
COC(=O)c1nc(NC[C@@H](N)Cc2ccc(C(F)(F)F)cc2)sc1-c1ccc2cnccc2c1 [Example 117]	pIC50	> 7.30
N[C@H](CNc1nc(CO)c(-c2ccc3cnccc3c2)s1)Cc1ccc(C(F)(F)F)cc1 [Example 10]	pIC50	> 7.30
N[C@H](CNc1ncc(-c2nc3ccncc3s2)s1)Cc1cccc(C(F)(F)F)c1 [Example 31]	pIC50	5.00 to 6.00
N[C@H](CNc1nc(C(=O)N2CCCC2)c(-c2ccc3cnccc3c2)s1)Cc1ccc(C(F)(F)F)cc1 [Example 195]	pIC50	5.00 to 6.00
C[C@@H](c1ccccc1)[C@H](N)CNc1ncc(-c2ccc3[nH]c(=O)oc3c2)s1 [Example 88]	pIC50	5.00 to 6.00
Cn1c(=O)[nH]c2ccc(-c3sc(NC[C@@H](N)Cc4ccc(C(F)(F)F)cc4)nc3C(F)(F)CO)cc21 [Example 136]	pIC50	5.00 to 6.00
COCc1nc(NC[C@@H](N)Cc2ccc(C(F)(F)F)cc2)sc1-c1ccc2[nH]c(=O)n(C)c2c1 [Example 58]	pIC50	6.00 to 7.30
N[C@H](CNc1ncc(-c2ccc3c(c2)CC(=O)N3)s1)Cc1c[nH]c2ccccc12 [Example 74, ditrifluoroacetate]	pIC50	5.00 to 6.00
N[C@H](CNc1ncc(-c2ccc3cnccc3n2)s1)Cc1ccc(C(F)(F)F)cc1 [Example 68]	pIC50	> 7.30
N[C@H](CNc1ncc(-c2ccc3cn[nH]c3c2)s1)Cc1ccc(C(F)(F)F)cc1 [Example 48]	pIC50	6.00 to 7.30
N[C@H](CNc1ncc(-c2ccc3cnccc3c2)s1)Cc1cc(F)cc(F)c1 [Example 161]	pIC50	6.00 to 7.30
COCc1nc(NC[C@@H](N)Cc2ccc(C(F)(F)F)cc2)sc1-c1ccc2c(c1)CC(=O)N2 [Example 69]	pIC50	> 7.30
N[C@H](CNc1ncc(-c2ccc3cnccc3c2)s1)Cc1ccc(C(F)(F)F)c(O)c1 [Example 208]	pIC50	> 7.30
N[C@H](CNc1ncc(-c2ccc3[nH]ncc3c2)s1)Cc1ccc(Cl)cc1 [Example 4]	pIC50	> 7.30
Cc1n[nH]c2ccc(-c3cnc(NC[C@@H](N)Cc4c[nH]c5ccccc45)s3)cc12 [Example 2]	pIC50	6.00 to 7.30
NC(CNc1ncc(-c2ccc3[nH]ncc3c2)s1)Cc1ccc(C(F)(F)F)c(F)c1F (stereo not shown) [Example 190]	pIC50	> 7.30
N[C@H](CNc1ncc(-c2ccc3c(c2)CC(=O)N3)s1)[C@@H](CO)c1ccc(C(F)(F)F)cc1 [Example 158]	pIC50	> 7.30
COc1cc(C[C@H](N)CNc2ncc(-c3ccc4cnccc4c3)s2)cnc1C(F)(F)F [Example 173]	pIC50	> 7.30
N[C@H](CNc1ncc(-c2ccc3c(c2)CNC3=O)s1)Cc1ccc(C(F)(F)F)cc1 [Example 240]	pIC50	6.00 to 7.30
N[C@H](CNc1ncc(-c2ccc3[nH]c(=O)oc3c2)s1)Cc1ccc2ccccc2c1 [Example 204]	pIC50	> 7.30
COCc1nc(NC[C@@H](N)Cc2ccc(C(F)(F)F)cc2)sc1-c1ccc2[nH]c(=O)oc2c1 [Example 59]	pIC50	> 7.30

Entry source: patent US8084479B2
